Origin of values: patent US20230257419A1

- Test system: BSP gene
- assay: BSP mRNA expression by real-time PCR in human periodontal ligament cells
- Type: cell-based
- condition: average of three experiments
BSP gene expression, relative mRNA expression level compared to the control, Average overview
Returns: the value as a bare number; no unit string appended.

# count of solved cases: 8
7 (KYKQKKRNYK) [compound 7] = 2.215
14 (KYKQKRKSYK) [compound 14] = 2.836
10 (KYKQRKRSYK) [compound 10] = 2.811
3 (KYKQRRKNYK) [compound 3] = 2.572
9 (KYKQRKKSYK) [compound 9] = 2.211
8 (KYKQKRRNYK) [compound 8] = 2.021
13 (KYKQKKKSYK) [compound 13] = 2.525
15 (KYKQKKRSYK) [compound 15] = 2.620

// query Entry 16 (KYKQKRRSYK) [compound 16] : reported BSP gene expression, relative mRNA expression level compared to the control, Average = ?
// result 2.606

// query Entry 4 (KYKQRRRNYK) [compound 4] : reported BSP gene expression, relative mRNA expression level compared to the control, Average = ?
// result 2.702

// query Entry 5 (KYKQKKKNYK) [compound 5] : reported BSP gene expression, relative mRNA expression level compared to the control, Average = ?
// result 2.67

// query Entry 11 (KYKQRRKSYK) [compound 11] : reported BSP gene expression, relative mRNA expression level compared to the control, Average = ?
// result 2.362

// query Entry 6 (KYKQKRKNYK) [compound 6] : reported BSP gene expression, relative mRNA expression level compared to the control, Average = ?
// result 2.705

// query Entry 1 (KYKQRKKNYK) [compound 1] : reported BSP gene expression, relative mRNA expression level compared to the control, Average = ?
// result 2.092

// query Entry 2 (KYKQRKRNYK) [compound 2] : reported BSP gene expression, relative mRNA expression level compared to the control, Average = ?
// result 2.361

// query Entry 12 (KYKQRRRSYK) [compound 12] : reported BSP gene expression, relative mRNA expression level compared to the control, Average = ?
// result 2.211
